Data origin: ChEMBL document CHEMBL1145592

Test system: Staphylococcus aureus
assay notes: Antibacterial activity against methicillin-susceptible Staphylococcus aureus Smith
Assay type: functional
endpoint label: MIC (µg/mL)
Quick reminder: number only, in µg/mL, skip the unit.

Reported MIC for Staphylococcus aureus, given C=C[C@]1(C)C[C@@H](OC(=O)CSC2CCN(C(=O)CCCn3cnc4cnc(N)nc43)CC2)[C@]2(C)[C@H](C)CC[C@]3(CCC(=O)[C@@H]32)[C@@H](C)[C@@H]1O ?
0.1

Reported MIC for Staphylococcus aureus, given C=C[C@]1(C)C[C@@H](OC(=O)CSC2CCN(C(=O)CCn3cnc4c(N5CCCC5)nc(N)nc43)CC2)[C@]2(C)[C@H](C)CC[C@]3(CCC(=O)[C@@H]32)[C@@H](C)[C@@H]1O ?
0.39

Reported MIC for Staphylococcus aureus, given C=C[C@]1(C)C[C@@H](OC(=O)CSC2CCN(C(=O)CCn3cnc4c(N5CCOCC5)nc(N)nc43)CC2)[C@]2(C)[C@H](C)CC[C@]3(CCC(=O)[C@@H]32)[C@@H](C)[C@@H]1O ?
0.2

Reported MIC for Staphylococcus aureus, given C=C[C@]1(C)C[C@@H](OC(=O)CSC2CCN(C(=O)CCn3cnc4c(N5CCC(N)CC5)ncnc43)CC2)[C@]2(C)[C@H](C)CC[C@]3(CCC(=O)[C@@H]32)[C@@H](C)[C@@H]1O ?
0.125

Reported MIC for Staphylococcus aureus, given C=C[C@]1(C)C[C@@H](OC(=O)CSC2CCN(C(=O)CCn3cnc4c(N5CCC(CN)C5)ncnc43)CC2)[C@]2(C)[C@H](C)CC[C@]3(CCC(=O)[C@@H]32)[C@@H](C)[C@@H]1O (some centres not stated) ?
0.125

Reported MIC for Staphylococcus aureus, given CC[C@]1(C)C[C@@H](OC(=O)CSc2nnc(N)[nH]2)[C@]2(C)[C@H](C)CC[C@]3(CCC(=O)[C@@H]32)[C@@H](C)[C@@H]1O ?
0.5

Reported MIC for Staphylococcus aureus, given C=C[C@]1(C)C[C@@H](OC(=O)CSC2CCN(C(=O)CCn3cnc4c(N5CCC(N(C)C)CC5)nc(N)nc43)CC2)[C@]2(C)[C@H](C)CC[C@]3(CCC(=O)[C@@H]32)[C@@H](C)[C@@H]1O ?
0.25

Reported MIC for Staphylococcus aureus, given C=C[C@]1(C)C[C@@H](OC(=O)CSC2CCN(C(=O)CCn3cnc4c(N5CCCC(N)C5)ncnc43)CC2)[C@]2(C)[C@H](C)CC[C@]3(CCC(=O)[C@@H]32)[C@@H](C)[C@@H]1O (some centres not stated) ?
0.125

Reported MIC for Staphylococcus aureus, given C=C[C@]1(C)C[C@@H](OC(=O)CSC2CCN(C(=O)CCn3cnc4cnc(N)nc43)CC2)[C@]2(C)[C@H](C)CC[C@]3(CCC(=O)[C@@H]32)[C@@H](C)[C@@H]1O ?
0.05

Reported MIC for Staphylococcus aureus, given C=C[C@]1(C)C[C@@H](OC(=O)CSC2CCN(C(=O)CCn3cnc4c(N5CC(N)C5)nc(N)nc43)CC2)[C@]2(C)[C@H](C)CC[C@]3(CCC(=O)[C@@H]32)[C@@H](C)[C@@H]1O ?
0.5

Reported MIC for Staphylococcus aureus, given C=C[C@]1(C)C[C@@H](OC(=O)CSC2CCN(C(=O)Cn3cnc4cncnc43)CC2)[C@]2(C)[C@H](C)CC[C@]3(CCC(=O)[C@@H]32)[C@@H](C)[C@@H]1O ?
0.2

Reported MIC for Staphylococcus aureus, given C=C[C@]1(C)C[C@@H](OC(=O)CSC2CCN(C(=O)CCn3cnc4c(N5CCN(C)CC5)nc(N)nc43)CC2)[C@]2(C)[C@H](C)CC[C@]3(CCC(=O)[C@@H]32)[C@@H](C)[C@@H]1O ?
0.125

Reported MIC for Staphylococcus aureus, given C=C[C@]1(C)C[C@@H](OC(=O)CSC2CCN(C(=O)CCn3cnc4c(N)nc(N)nc43)CC2)[C@]2(C)[C@H](C)CC[C@]3(CCC(=O)[C@@H]32)[C@@H](C)[C@@H]1O ?
0.05

Reported MIC for Staphylococcus aureus, given C=C[C@]1(C)C[C@@H](OC(=O)CSC2CCN(C(=O)/C=C/n3cnc4cnc(N)nc43)CC2)[C@]2(C)[C@H](C)CC[C@]3(CCC(=O)[C@@H]32)[C@@H](C)[C@@H]1O ?
0.1

Reported MIC for Staphylococcus aureus, given C=C[C@]1(C)C[C@@H](OC(=O)CSC2CCN(C(=O)CCn3cnc4c(N5CCNCC5)ncnc43)CC2)[C@]2(C)[C@H](C)CC[C@]3(CCC(=O)[C@@H]32)[C@@H](C)[C@@H]1O ?
0.063

Reported MIC for Staphylococcus aureus, given C=C[C@]1(C)C[C@@H](OC(=O)CSC2CCN(C(=O)CCn3cnc4c(N5CC(NC)C5)nc(N)nc43)CC2)[C@]2(C)[C@H](C)CC[C@]3(CCC(=O)[C@@H]32)[C@@H](C)[C@@H]1O ?
0.5

Reported MIC for Staphylococcus aureus, given C=C[C@]1(C)C[C@@H](OC(=O)CSC2CCN(C(=O)CCn3cnc4c(N5CCNCC5)nc(N)nc43)CC2)[C@]2(C)[C@H](C)CC[C@]3(CCC(=O)[C@@H]32)[C@@H](C)[C@@H]1O ?
0.25

Reported MIC for Staphylococcus aureus, given C=C[C@]1(C)C[C@@H](OC(=O)CSC2CCN(C(=O)CCn3cnc4c(NC)nc(N)nc43)CC2)[C@]2(C)[C@H](C)CC[C@]3(CCC(=O)[C@@H]32)[C@@H](C)[C@@H]1O ?
0.1

Reported MIC for Staphylococcus aureus, given C=C[C@]1(C)C[C@@H](OC(=O)CSC2CCN(C(=O)CCn3cnc4c(N(C)C)nc(N)nc43)CC2)[C@]2(C)[C@H](C)CC[C@]3(CCC(=O)[C@@H]32)[C@@H](C)[C@@H]1O ?
0.1

Reported MIC for Staphylococcus aureus, given C=C[C@]1(C)C[C@@H](OC(=O)CSC2CCN(C(=O)CCn3cnc4c(N5CCC(N)C5)nc(N)nc43)CC2)[C@]2(C)[C@H](C)CC[C@]3(CCC(=O)[C@@H]32)[C@@H](C)[C@@H]1O (some centres not stated) ?
0.5

Reported MIC for Staphylococcus aureus, given C=C[C@]1(C)C[C@@H](OC(=O)CSC2CCN(C(=O)CCn3cnc4c(N5CCC(CNC)C5)nc(N)nc43)CC2)[C@]2(C)[C@H](C)CC[C@]3(CCC(=O)[C@@H]32)[C@@H](C)[C@@H]1O (some centres not stated) ?
0.5

Reported MIC for Staphylococcus aureus, given C=C[C@]1(C)C[C@@H](OC(=O)CSC2CCN(C(=O)CCn3cnc4c(N5CCC(N(C)C)C5)nc(N)nc43)CC2)[C@]2(C)[C@H](C)CC[C@]3(CCC(=O)[C@@H]32)[C@@H](C)[C@@H]1O (some centres not stated) ?
0.25
